- Read-out: adenosine kinase (ADK) gene, ADK (gene 132)
- PROTOCOL SUMMARY: LTEA_HepaRG_ADK: Life Technologies and Expression Analysis (LTEA) Assay for adenosine kinase (ADK) gene using HepaRG (AID 2283471)
- MEASUREMENT CONDITIONS: mRNA level, 48 h; actives raise or lower the signal
Active and inactive are the calls of the source. How the source made its calls: active means hit-call score of the fitted dose curve at least 0.9, where 1 is the maximum; inactive means score below 0.9.
Entry note: the call must match one of active, inactive

As a guide, the following entries are already answered.
COC(=O)c1ccccc1N
inactive
Clc1ccc(Cl)c(Cl)c1
inactive
O=[N+]([O-])C(Br)(CO)CO
inactive
O=C(Nc1ccccc1)c1ccccc1I
inactive
CCCCCCCCn1sccc1=O
inactive

Then this molecule:
How did this test come out for `COC(=O)Nc1nc2ccccc2[nH]1` ?
inactive

###

- Read-out: Human Leukocyte Antigen - DR isotype (HLADR), HLA-DRA (gene 3122)
- PROTOCOL SUMMARY: BSK_BE3C_HLADR: BioMAP Diversity Plus: BE3C Assay for Human Leukocyte Antigen - DR isotype (HLADR) Biomarker Activity (AID 2283032)
- MEASUREMENT CONDITIONS: primary human bronchial epithelial cells; actives raise or lower the signal
Active and inactive are the calls of the source. How the source made its calls: active means hit-call score of the fitted dose curve at least 0.9, where 1 is the maximum; inactive means score below 0.9.
Entry note: the call must match one of active, inactive

As a guide, the following entries are already answered.
CC(C)(C)OOC(=O)c1ccccc1
inactive
O=C1CCCO1
inactive
c1ccc2c(c1)-c1cccc3cccc-2c13
inactive

How did this test come out for `CO[C@@H]1[C@H](OC(=O)NC(=O)CCl)CC[C@]2(CO2)[C@H]1[C@@]1(C)O[C@@H]1CC=C(C)C` ?
active

How did this test come out for `Oc1ccccc1Cl` ?
inactive

How did this test come out for `Nc1cc(Cl)cc(C(=O)O)c1Cl` ?
inactive

###

- PROTOCOL SUMMARY: CCTE_Shafer_MEA_acute_burst_number: CCTE's Neural Acute Assay for Single-Electrode Bursts, Shafer Lab (AID 2284013)
- Method: CCTE_Shafer_MEA_acute assay is conducted using Axion Biosystems 48 well microelectrode array (MEA) plates and Maestro recording system. Each well of the MEA plate contains a grid of 16 microelectrodes embedded in the culture surface. Electrically active cells, such as neurons, can be cultured over the electrodes, and electrical activity in these cells can be recorded extracellularly. […]
Activity calls are given as the source filed them. How the source made its calls: active means hit-call score of the fitted dose curve at least 0.9, where 1 is the maximum; inactive means score below 0.9.
Entry note: the call must match one of 1 for active, -1 for inactive

As a guide, the following entries are already answered.
CCCCOC(=O)c1ccccc1C(=O)OCc1ccccc1
1
c1ccc(N=Nc2ccccc2)cc1
-1
CC(C)(O)c1cnn2c(-c3ccc(F)c(-c4c(F)cccc4C#N)c3)cnc2n1
1

How did this test come out for `O=C(Oc1ccc(Br)cc1)N1CCN2CCC1CC2` ?
-1

How did this test come out for `CCN(CC)N=O` ?
-1

How did this test come out for `Clc1ccc(C(c2ccc(Cl)cc2)C(Cl)(Cl)Cl)cc1` ?
-1

How did this test come out for `CC(C)COC(=O)c1ccccc1C(=O)OCC(C)C` ?
-1

How did this test come out for `Cc1cc(N=Nc2ccccc2C)ccc1N` ?
-1

###

- Read-out: Monocyte Chemoattractant Protein-1 (MCP1), CCL2 (gene 6347)
- PROTOCOL SUMMARY: BSK_LPS_MCP1: BioMAP Diversity Plus: LPS Assay for Monocyte Chemoattractant Protein-1 (MCP1) Biomarker Activity (AID 2283081)
- MEASUREMENT CONDITIONS: primary human HUVEC with PBMC; actives raise or lower the signal
Calls of active or inactive are those of the source. Rule for the calls: active = hit-call score of the fitted dose curve at least 0.9, where 1 is the maximum; inactive = score below 0.9.
Entry note: the call must match one of y for active, n for inactive

How did this test come out for CCCCCCCCCCCCCN1CC(C)OC(C)C1 (centres undefined) ?
n

How did this test come out for `CC(C)(C)OOC(C)(C)CCC(C)(C)OOC(C)(C)C` ?
n

How did this test come out for `COC(=O)Nc1nc2ccccc2[nH]1` ?
n

How did this test come out for CCCCC(CC)COC(=O)c1ccc(C(=O)OCC(CC)CCCC)c(C(=O)OCC(CC)CCCC)c1 (centres undefined) ?
n

How did this test come out for `Cc1ccc(N)c(N)c1` ?
n

How did this test come out for `COC(=O)c1ccccc1N` ?
n

How did this test come out for `Nc1ccc(Cc2ccc(N)cc2)cc1` ?
n

How did this test come out for CCC(C)c1ccc(O)cc1 (centres undefined) ?
n

How did this test come out for `CN(C)c1ccc(C(=O)c2ccc(N(C)C)cc2)cc1` ?
n

How did this test come out for `O=Cc1ccco1` ?
n

How did this test come out for `OCCCl` ?
n

How did this test come out for CC(C)(C)C(O)(CCc1ccc(Cl)cc1)Cn1cncn1 (centres undefined) ?
n

How did this test come out for c1ccc(C2CO2)cc1 (centres undefined) ?
n

How did this test come out for `O=[N+]([O-])c1ccc(Oc2ccc(Cl)cc2Cl)cc1` ?
y
